The entries below are paired with their reported IC50 (nM), HT29 meso+ cells, MTT proliferation assay.
# system under test: Mesothelin (SwissProt reference Q13421-3) (Homo sapiens, UniProt Q13421 37-622)
# assay details: cell-based or functional assay
Numbers only; they are read as nM.

Find the recorded IC50 (nM), HT29 meso+ cells, MTT proliferation assay belonging to Example 155, conjugate of anti-mesothelin antibody MF-Ta (antibody, human IgG1, lambda, V domains shown, toxophore-linker, coupling residue not stated) VH: QVELVQSGAEVKKPGESLKISCKGSGYSFTSYWIGWVRQAPGKGLEWMGIIDPGDSRTRYSPSFQGQVTISADKSISTAYLQWSSLKASDTAMYYCARGQLYGGTYMDGWGQGTLVTVSS VL: DIALTQPASVSGSPGQSITISCTGTSSDIGGYNSVSWYQQHPGKAPKLMIYGVNNRPSGVSNRFSGSKSGNTASLTISGLQAEDEADYYCSSYDIESATPVFGGGTKLTVLG and report it.
0.5

Find the recorded IC50 (nM), HT29 meso+ cells, MTT proliferation assay belonging to Example 146, conjugate of anti-mesothelin antibody MF-Ta (antibody, human IgG1, lambda, V domains shown, toxophore-linker on Lys NH, sites not given) VH: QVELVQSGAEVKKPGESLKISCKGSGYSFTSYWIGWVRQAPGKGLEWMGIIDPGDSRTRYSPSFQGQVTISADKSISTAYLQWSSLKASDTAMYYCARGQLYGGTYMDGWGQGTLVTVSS VL: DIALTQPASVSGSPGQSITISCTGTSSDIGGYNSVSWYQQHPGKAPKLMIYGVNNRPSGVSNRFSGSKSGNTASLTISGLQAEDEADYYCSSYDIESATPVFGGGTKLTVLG and report it.
13

Here is another binder to look at.
Find the recorded IC50 (nM), HT29 meso+ cells, MTT proliferation assay belonging to Example 108, conjugate of anti-mesothelin antibody MF-Ta (antibody, human IgG1, lambda, V domains shown, toxophore-linker on Cys sulfur, sites not given) VH: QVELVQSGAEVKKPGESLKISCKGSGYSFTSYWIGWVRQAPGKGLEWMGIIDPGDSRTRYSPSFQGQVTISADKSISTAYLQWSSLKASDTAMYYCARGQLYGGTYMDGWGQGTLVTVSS VL: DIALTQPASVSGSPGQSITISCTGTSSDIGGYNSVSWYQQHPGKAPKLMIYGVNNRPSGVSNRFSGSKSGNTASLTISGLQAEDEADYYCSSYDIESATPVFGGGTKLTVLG and report it.
0.74

Ref: patent US20150246136A1
